Provenance of the data: the supplement of paper PMC11208160

Assay: recombinant UMI read abundance after kanamycin selection (control-corrected) (log10(CPM+1)); higher = more efficient recombination; extreme values may be limits of the assay; sequences stand for … in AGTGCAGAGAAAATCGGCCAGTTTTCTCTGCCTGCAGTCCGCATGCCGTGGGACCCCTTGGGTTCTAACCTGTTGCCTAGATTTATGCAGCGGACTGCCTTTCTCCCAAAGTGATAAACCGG…AGGTTGGTTTCACT; site = the 11-nt donor;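 also: IS621 bridge recombinase in Escherichia coli cells against a fixed T5 target plasmid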
The entries below are paired with their reported recombinant UMI read abundance (log10).
Please reply with the number alone, leaving off any unit.

Below, each entry is followed by its recorded recombinant UMI read abundance (log10) result.
input.sequence	recombinant UMI read abundance (log10)
TAGGCAACATGGACCGGTTTTCCCGGTAATCCGTATTTGAA (site TAGGCAACTTT)	0.0147
CTCGGGCCATGGACCGGTTTTCCCGGTAATCCGTATTTGTG (site CTCGGGCCTCA)	0
CACTTCGCATGGACCGGTTTTCCCGGTAATCCGTATTTGGA (site CACTTGGCTTC)	0
GTGCATGCATGGACCGGTTTTCCCGGTAATCCGTATTTGGT (site GCGCATGCTAC)	0.271
CCATTATCATGGACCGGTTTTCCCGGTAATCCGTATTTGAC (site CCATTATCTGT)	0.804

GET /values?readout=recombinant UMI read abundance (log10)&item= TGCTAGGCATGGACCGGTTTTCCCGGTAATCCGTATTTGGT (site CGCTAGGCTAC)
0.019

Repeat for the following sequence: GCCAACTCATGGACCGGTTTTCCCGGTAATCCGTATTTGCG (site GCCAACTCTCG)
1.98

Repeat for the following sequence: AATCGGACATGGACCGGTTTTCCCGGTAATCCGTATTTGAT (site AATCGGACTAT)
1.01

Repeat for the following sequence: TGTACGCCATGGACCGGTTTTCCCGGTAATCCGTATTTGAC (site TGTACGCCTGT)
0

Repeat for the following sequence: CAGTCGACATGGACCGGTTTTCCCGGTAATCCGTATTTGAG (site CAGTCGACTCA)
0.00421

Repeat for the following sequence: GCAAGCGCATGGACCGGTTTTCCCGGTAATCCGTATTTGAT (site GCAAGCGCTAT)
2.29

Repeat for the following sequence: CTGGTACCATGGACCGGTTTTCCCGGTAATCCGTATTTGCT (site CTGTTACCTAG)
0

Repeat for the following sequence: ATGAATACATGGACCGGTTTTCCCGGTAATCCGTATTTGGC (site ATGAATACTGC)
1.69

Repeat for the following sequence: ATGTAGGCATGGACCGGTTTTCCCGGTAATCCGTATTTGGC (site ATGTATGCTGC)
0.657

====

The entries below are paired with their reported recombinant UMI read abundance (log10).
Assay: recombinant UMI read abundance after kanamycin selection (control-corrected) (log10(CPM+1)); higher = more efficient recombination; extreme values may be limits of the assay; sequences stand for … in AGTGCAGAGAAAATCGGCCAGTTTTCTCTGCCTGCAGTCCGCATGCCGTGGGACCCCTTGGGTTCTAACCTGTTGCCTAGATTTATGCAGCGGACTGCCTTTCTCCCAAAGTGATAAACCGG…AGGTTGGTTTCACT; site = the 11-nt donor
Please reply with the number alone, leaving off any unit.

Below, each entry is followed by its recorded recombinant UMI read abundance (log10) result.
input.sequence	experimental.endpoint	meas.value
AATGTCTCATGGACCGGTTTTCCCGGTAATCCGTATTTGAC (site AATGTATCTGT)	recombinant UMI read abundance (log10)	1.32
CAAGCAGCATGGACCGGTTTTCCCGGTAATCCGTATTTGCC (site CAAGCAGCTGG)	recombinant UMI read abundance (log10)	2.75
GTTGGTCCATGGACCGGTTTTCCCGGTAATCCGTATTTGGT (site GTTGATCCTAC)	recombinant UMI read abundance (log10)	0.0104
GGATAGACATGGACCGGTTTTCCCGGTAATCCGTATTTGCC (site GGACAGACTGG)	recombinant UMI read abundance (log10)	2.55

GET /values?readout=recombinant UMI read abundance (log10)&item= CCCGTTCCATGGACCGGTTTTCCCGGTAATCCGTATTTGCA (site CCCGTTCCTTG)
0
